experimental system: MBP-FoxP1dN (Mus musculus, UniProt P58462 326-579)
Sequence: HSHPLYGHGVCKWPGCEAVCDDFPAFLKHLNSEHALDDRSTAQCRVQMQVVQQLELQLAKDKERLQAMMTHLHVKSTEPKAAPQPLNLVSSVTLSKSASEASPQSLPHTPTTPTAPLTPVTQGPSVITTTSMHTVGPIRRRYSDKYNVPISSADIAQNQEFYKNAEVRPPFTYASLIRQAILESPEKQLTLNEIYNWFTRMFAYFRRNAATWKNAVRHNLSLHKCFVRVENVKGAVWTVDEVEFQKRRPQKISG
assay summary: PD-seq (MBP pull-down with sequencing); 20 mM Tris-HCl pH 7.5, 100 mM NaCl, 1.5 mM MgCl2, 0.4 uM protein, 0.1 uM dsDNA library, 30 min, room temperature, amylose pull-down; high values mean tight binding
condition label: protein: recombinant; tags: His6-MBP; chain copies: 2; dsDNA, one strand shown
In all, about 16,000 sequences were measured (“rpm ratio (pull-down/input)”: median about 0.94, highest 2% from about 1.7 on). Shown is part of a subset that was picked to be rich in the highest values.
Recorded binding signal for the following sequences

INSERT INTO assay_data (primary_sequence, endpoint_name, result) VALUES
  ('GATGATTGTTCTCCCAGCTGATGAATTAATTGAGTCGAGTAAACAAATTTTCCTAATCTTTCTGTTCAAGCGCCATCTAC', 'binding signal', '0.932 RPM ratio (pull-down/input)');

## Task Lab note: need binding signal with MBP-FoxP1dN (Mus musculus, UniProt P58462 326-579) for entry GATGATTGTTCTCCCAGCTGATGAATTGATAGCTTCGAGTAAACAAATTTTCCTAATCTTTCTGTTCAAGCGCCATCTAC , please look it up.
## Result 0.923 RPM ratio (pull-down/input)

## Task Lab note: need binding signal with MBP-FoxP1dN (Mus musculus, UniProt P58462 326-579) for entry GATGATTGTTCTCCCAGCTGATGAATTGAGCAGATCGAGTAAACAAATTTTCCTAATCTTTCTGTTCAAGCGCCATCTAC , please look it up.
## Result 0.835 RPM ratio (pull-down/input)

## Task Form entry - test system: MBP-FoxP1dN (Mus musculus, UniProt P58462 326-579); read-out: binding signal; sequence: GATGATTGTTCTCCCAGCTGATGAATTCAGACGTTCGAGTAAACAAATTTTCCTAATCTTTCTGTTCAAGCGCCATCTAC
## Result 0.787 RPM ratio (pull-down/input)

* * *

experimental system: MBP-FoxP1dN (Mus musculus, UniProt P58462 326-579)
Sequence: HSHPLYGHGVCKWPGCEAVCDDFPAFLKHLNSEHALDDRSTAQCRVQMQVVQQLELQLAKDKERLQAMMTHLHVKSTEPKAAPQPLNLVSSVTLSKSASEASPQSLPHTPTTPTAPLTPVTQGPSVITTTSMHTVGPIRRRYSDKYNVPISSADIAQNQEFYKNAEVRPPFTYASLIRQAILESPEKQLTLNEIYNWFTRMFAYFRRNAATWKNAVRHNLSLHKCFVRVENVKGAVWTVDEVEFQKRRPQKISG
assay summary: PD-seq (MBP pull-down with sequencing); 20 mM Tris-HCl pH 7.5, 100 mM NaCl, 1.5 mM MgCl2, 0.4 uM protein, 0.1 uM dsDNA library, 30 min, room temperature, amylose pull-down; high values mean tight binding
condition label: protein: recombinant; tags: His6-MBP; chain copies: 2; dsDNA, one strand shown
In all, about 16,000 sequences were measured (“rpm ratio (pull-down/input)”: median about 0.94, highest 2% from about 1.7 on). The sample as a whole holds a higher share of the highest values than the screen did.
endpoint name: binding signal

The cases that follow already have their binding signal on record.
INSERT INTO results (primary_sequence, experimental_system, result) VALUES
  ('GATGATTGTTCTCCCAGCTGATGAATTGTTGTCCTCGAGTAAACAAATTTTCCTAATCTTTCTGTTCAAGCGCCATCTAC', 'MBP-FoxP1dN (Mus musculus, UniProt P58462 326-579)', '2.28 RPM ratio (pull-down/input)'),
  ('GATGATTGTTCTCCCAGCTGATGAATTGATCTTCTCGAGTAAACAAATTTTCCTAATCTTTCTGTTCAAGCGCCATCTAC', 'MBP-FoxP1dN (Mus musculus, UniProt P58462 326-579)', '0.956 RPM ratio (pull-down/input)'),
  ('GATGATTGTTCTCCCAGCTGATGAATTAATCGCGTCGAGTAAACAAATTTTCCTAATCTTTCTGTTCAAGCGCCATCTAC', 'MBP-FoxP1dN (Mus musculus, UniProt P58462 326-579)', '1.01 RPM ratio (pull-down/input)');

Pending sequence:
## Task # binding signal lookup, item GATGATTGTTCTCCCAGCTGATGAATTGTTGATCTCGAGTAAACAAATTTTCCTAATCTTTCTGTTCAAGCGCCATCTAC
## Result 2.06 RPM ratio (pull-down/input)

* * *

experimental system: MBP-FoxP1dN (Mus musculus, UniProt P58462 326-579)
Sequence: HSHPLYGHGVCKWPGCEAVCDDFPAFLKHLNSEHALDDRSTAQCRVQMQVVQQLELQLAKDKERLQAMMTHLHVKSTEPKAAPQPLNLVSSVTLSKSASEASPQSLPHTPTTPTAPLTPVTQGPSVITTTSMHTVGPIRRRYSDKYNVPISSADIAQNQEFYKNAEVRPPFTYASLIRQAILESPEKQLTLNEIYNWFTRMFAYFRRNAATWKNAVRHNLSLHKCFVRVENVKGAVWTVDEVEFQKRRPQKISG
assay summary: PD-seq (MBP pull-down with sequencing); 20 mM Tris-HCl pH 7.5, 100 mM NaCl, 1.5 mM MgCl2, 0.4 uM protein, 0.1 uM dsDNA library, 30 min, room temperature, amylose pull-down; high values mean tight binding
condition label: protein: recombinant; tags: His6-MBP; chain copies: 2; dsDNA, one strand shown
Whole data set: some 16,000 sequences, median “rpm ratio (pull-down/input)” near 0.94, cut for the highest 2% near 1.7. The sample holds the highest values, similar sequences and a random draw of the others, so the mix is not that of the screen.
endpoint name: binding signal

Here is how some sequences turned out for binding signal.
INSERT INTO assay_data (primary_sequence, experimental_system, result) VALUES
  ('GATGATTGTTCTCCCAGCTGATGAATTTTGTTTGTCGAGTAAACAAATTTTCCTAATCTTTCTGTTCAAGCGCCATCTAC', 'MBP-FoxP1dN (Mus musculus, UniProt P58462 326-579)', '2.66 RPM ratio (pull-down/input)'),
  ('GATGATTGTTCTCCCAGCTGATGAATTTTGCGCGTCGAGTAAACAAATTTTCCTAATCTTTCTGTTCAAGCGCCATCTAC', 'MBP-FoxP1dN (Mus musculus, UniProt P58462 326-579)', '1.04 RPM ratio (pull-down/input)'),
  ('GATGATTGTTCTCCCAGCTGATGAATTTTCTTTGTCGAGTAAACAAATTTTCCTAATCTTTCTGTTCAAGCGCCATCTAC', 'MBP-FoxP1dN (Mus musculus, UniProt P58462 326-579)', '1.11 RPM ratio (pull-down/input)');

## Task Look up binding signal for this sequence: GATGATTGTTCTCCCAGCTGATGAATTGTTTGCGTCGAGTAAACAAATTTTCCTAATCTTTCTGTTCAAGCGCCATCTAC
## Result 2.27 RPM ratio (pull-down/input)

* * *

experimental system: MBP-FoxP1dN (Mus musculus, UniProt P58462 326-579)
Sequence: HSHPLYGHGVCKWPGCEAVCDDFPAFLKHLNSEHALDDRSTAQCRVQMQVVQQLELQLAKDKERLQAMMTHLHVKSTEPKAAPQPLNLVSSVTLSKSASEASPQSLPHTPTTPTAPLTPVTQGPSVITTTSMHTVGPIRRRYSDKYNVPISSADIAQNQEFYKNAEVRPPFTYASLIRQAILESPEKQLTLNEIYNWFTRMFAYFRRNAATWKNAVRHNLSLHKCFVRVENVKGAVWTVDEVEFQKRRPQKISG
assay summary: PD-seq (MBP pull-down with sequencing); 20 mM Tris-HCl pH 7.5, 100 mM NaCl, 1.5 mM MgCl2, 0.4 uM protein, 0.1 uM dsDNA library, 30 min, room temperature, amylose pull-down; high values mean tight binding
condition label: protein: recombinant; tags: His6-MBP; chain copies: 2; dsDNA, one strand shown
Over roughly 16,000 sequences, “rpm ratio (pull-down/input)” has its median near 0.94; the highest 2% begin near 1.7. The sample as a whole holds a higher share of the highest values than the screen did.
endpoint name: binding signal

Some solved entries appear below for comparison.
INSERT INTO measurements (primary_sequence, endpoint_name, result) VALUES
  ('GATGATTGTTCTCCCAGCTGATGAATTCACCACATCGAGTAAACAAATTTTCCTAATCTTTCTGTTCAAGCGCCATCTAC', 'binding signal', '1.12 RPM ratio (pull-down/input)'),
  ('GATGATTGTTCTCCCAGCTGATGAATTTGCTCCCTCGAGTAAACAAATTTTCCTAATCTTTCTGTTCAAGCGCCATCTAC', 'binding signal', '0.995 RPM ratio (pull-down/input)'),
  ('GATGATTGTTCTCCCAGCTGATGAATTCCTTCTCTCGAGTAAACAAATTTTCCTAATCTTTCTGTTCAAGCGCCATCTAC', 'binding signal', '0.736 RPM ratio (pull-down/input)'),
  ('GATGATTGTTCTCCCAGCTGATGAATTTTGTATGTCGAGTAAACAAATTTTCCTAATCTTTCTGTTCAAGCGCCATCTAC', 'binding signal', '1.54 RPM ratio (pull-down/input)'),
  ('GATGATTGTTCTCCCAGCTGATGAATTACACTCGTCGAGTAAACAAATTTTCCTAATCTTTCTGTTCAAGCGCCATCTAC', 'binding signal', '1.15 RPM ratio (pull-down/input)'),
  ('GATGATTGTTCTCCCAGCTGATGAATTTGTAATGTCGAGTAAACAAATTTTCCTAATCTTTCTGTTCAAGCGCCATCTAC', 'binding signal', '1.26 RPM ratio (pull-down/input)');

Continue with the next sequence.
## Task Dear colleague, I am looking for the recorded binding signal of the following sequence: GATGATTGTTCTCCCAGCTGATGAATTACTCACATCGAGTAAACAAATTTTCCTAATCTTTCTGTTCAAGCGCCATCTAC
## Result 1.28 RPM ratio (pull-down/input)
